- assay.text: Cyto-toxicity, MTT assay
- Assay type: cell-based
- measurement.context: 30 μM, read-out: Cytotoxicity % viability
Field: viability at 4 days, 30 µM. Provide a value for each of the compounds that follow.
Give bare numbers, in %.

smiles.structure	viability at 4 days, 30 µM (%)
C=C(C)[C@@H]1CC[C@]2(C(=O)N3CCC[C@H]3c3nc(-c4cccc(F)c4)cn3CCN(C)C)CC[C@]3(C)[C@H](CC[C@@H]4[C@@]5(C)CC[C@H](OC(=O)[C@H]6C[C@@H](C(=O)O)C6(C)C)C(C)(C)[C@@H]5CC[C@]43C)[C@@H]12	31
C=C(C)[C@@H]1CC[C@]2(C(=O)N3CCC[C@H]3c3nc(-c4ccccc4)cn3CCP(=O)(O)O)CC[C@]3(C)[C@H](CC[C@@H]4[C@@]5(C)CC[C@H](OC(=O)[C@H]6C[C@@H](C(=O)O)C6(C)C)C(C)(C)[C@@H]5CC[C@]43C)[C@@H]12	77

[in] Return viability at 4 days, 30 µM for the following compound: C=C(C)[C@@H]1CC[C@]2(C(=O)N3C[C@H](OCCOC)C[C@H]3c3nc(-c4ccccc4)cn3CCC(C)C)CC[C@]3(C)[C@H](CC[C@@H]4[C@@]5(C)CC[C@H](OC(=O)[C@H]6C[C@@H](C(=O)O)C6(C)C)C(C)(C)[C@@H]5CC[C@]43C)[C@@H]12
[out] 54

====

- Tested on: HIV-1 strains, for e.g., 92HT599
- assay.text: Antiviral activity: p24 estimation in HIV-1 infected MT-2 cells
- Type: cell-based
- measurement.context: Human immunodeficiency virus 1, MT2; 0.01 μM; MT-2 cells, p24, ~96 hours
Field: inhibition at 0.01 µM. Provide a value for each of the compounds that follow.

smiles.structure	inhibition at 0.01 µM
C=C(C)[C@@H]1CC[C@]2(C(=O)N3C[C@H](OCCOC)C[C@H]3c3nc(-c4ccccc4)cn3CCN3CCCC3)CC[C@]3(C)[C@H](CC[C@@H]4[C@@]5(C)CC[C@H](OC(=O)[C@H]6C[C@@H](C(=O)O)C6(C)C)C(C)(C)[C@@H]5CC[C@]43C)[C@@H]12	0%
C=C(C)[C@@H]1CC[C@]2(C(=O)N3C[C@H](OCCOC)C[C@H]3c3nc(-c4ccccc4)cn3CCC(C)C)CC[C@]3(C)[C@H](CC[C@@H]4[C@@]5(C)CC[C@H](OC(=O)[C@H]6C[C@@H](C(=O)O)C6(C)C)C(C)(C)[C@@H]5CC[C@]43C)[C@@H]12	0%
C=C(C)[C@@H]1CC[C@]2(C(=O)N3CCC[C@H]3c3nc4ccccc4n3CCN(C)C)CC[C@]3(C)[C@H](CC[C@@H]4[C@@]5(C)CC[C@H](OC(=O)[C@H]6C[C@@H](C(=O)O)C6(C)C)C(C)(C)[C@@H]5CC[C@]43C)[C@@H]12	0%
C=C(C)[C@@H]1CC[C@]2(C(=O)N3CCC[C@H]3c3nc(-c4cccc(F)c4)cn3CCN(C)C)CC[C@]3(C)[C@H](CC[C@@H]4[C@@]5(C)CC[C@H](OC(=O)[C@H]6C[C@@H](C(=O)O)C6(C)C)C(C)(C)[C@@H]5CC[C@]43C)[C@@H]12	24%
C=C(C)[C@@H]1CC[C@]2(C(=O)N3CCC[C@H]3c3nc(-c4ccccc4)cn3CCP(=O)(O)O)CC[C@]3(C)[C@H](CC[C@@H]4[C@@]5(C)CC[C@H](OC(=O)[C@H]6C[C@@H](C(=O)O)C6(C)C)C(C)(C)[C@@H]5CC[C@]43C)[C@@H]12	24%
C=C(C)[C@@H]1CC[C@]2(C(=O)N3C[C@H](OCCOC)C[C@H]3c3nc(-c4cccc(F)c4)cn3CCN3CCCC3)CC[C@]3(C)[C@H](CC[C@@H]4[C@@]5(C)CC[C@H](OC(=O)[C@H]6C[C@@H](C(=O)O)C6(C)C)C(C)(C)[C@@H]5CC[C@]43C)[C@@H]12	13%

[in] Complete the entry with inhibition at 0.01 µM for C=C(C)[C@@H]1CC[C@]2(C(=O)N3CCC[C@H]3c3nc4ccccc4n3CCN3CCCC3)CC[C@]3(C)[C@H](CC[C@@H]4[C@@]5(C)CC[C@H](OC(=O)[C@H]6C[C@@H](C(=O)O)C6(C)C)C(C)(C)[C@@H]5CC[C@]43C)[C@@H]12
[out] 71%

====

Hi there, I'd appreciate the recorded viability at 4 days, 10 µM for every entry that follows.
- assay.text: Cyto-toxicity, MTT assay
- Assay type: cell-based
- measurement.context: 10 μM, read-out: Cytotoxicity % viability

smiles.structure	viability at 4 days, 10 µM
C=C(C)[C@@H]1CC[C@]2(C(=O)N3C[C@H](OCCOC)C[C@H]3c3nc(-c4ccccc4)cn3CCC(C)C)CC[C@]3(C)[C@H](CC[C@@H]4[C@@]5(C)CC[C@H](OC(=O)[C@H]6C[C@@H](C(=O)O)C6(C)C)C(C)(C)[C@@H]5CC[C@]43C)[C@@H]12	77%
C=C(C)[C@@H]1CC[C@]2(C(=O)N3CCC[C@H]3c3nc(-c4cccc(F)c4)cn3CCN(C)C)CC[C@]3(C)[C@H](CC[C@@H]4[C@@]5(C)CC[C@H](OC(=O)[C@H]6C[C@@H](C(=O)O)C6(C)C)C(C)(C)[C@@H]5CC[C@]43C)[C@@H]12	42%

[in] Input C=C(C)[C@@H]1CC[C@]2(C(=O)N3CCC[C@H]3c3nc(-c4ccccc4)cn3CCP(=O)(O)O)CC[C@]3(C)[C@H](CC[C@@H]4[C@@]5(C)CC[C@H](OC(=O)[C@H]6C[C@@H](C(=O)O)C6(C)C)C(C)(C)[C@@H]5CC[C@]43C)[C@@H]12 , output reported viability at 4 days, 10 µM.
[out] 88%

====

Give Cmax for every item shown.
- assay.text: Single dose oral pharmacokinetic study
- Set-up: species or system mice
- measurement.context: mouse, in vivo, po, 30 mg/kg
Numbers only, in ng/mL.

smiles.structure	reported.endpoint	assay.result
C=C(C)[C@@H]1CC[C@]2(C(=O)N3CCC[C@H]3c3nc(-c4ccncc4)cn3CCN3CCCC3)CC[C@]3(C)[C@H](CC[C@@H]4[C@@]5(C)CC[C@H](OC(=O)[C@H]6C[C@@H](C(=O)O)C6(C)C)C(C)(C)[C@@H]5CC[C@]43C)[C@@H]12	Cmax	6900
C=C(C)[C@@H]1CC[C@]2(C(=O)N3CCC[C@H]3c3nc4ccccc4n3CCN(C)C)CC[C@]3(C)[C@H](CC[C@@H]4[C@@]5(C)CC[C@H](OC(=O)[C@H]6C[C@@H](C(=O)O)C6(C)C)C(C)(C)[C@@H]5CC[C@]43C)[C@@H]12	Cmax	14900
C=C(C)[C@@H]1CC[C@]2(C(=O)N3CCC[C@H]3c3nc(-c4cccnc4)cn3CCN(C)C)CC[C@]3(C)[C@H](CC[C@@H]4[C@@]5(C)CC[C@H](OC(=O)CC(C)(C)C(=O)O)C(C)(C)[C@@H]5CC[C@]43C)[C@@H]12	Cmax	648

[in] Identify measured Cmax corresponding to C=C(C)[C@@H]1CC[C@]2(C(=O)N3CCC[C@H]3c3nc(-c4ccccc4)cn3C)CC[C@]3(C)[C@H](CC[C@@H]4[C@@]5(C)CC[C@H](OC(=O)[C@H]6C[C@@H](C(=O)O)C6(C)C)C(C)(C)[C@@H]5CC[C@]43C)[C@@H]12
[out] 8540

====

Please respond with reported viability at 4 days, 0.01 µM for every item in the list.
- assay.text: Cyto-toxicity, MTT assay
- Format: cell-based
- measurement.context: 0.01 uM, read-out: Cytotoxicity % viability
One number for each entry, in %.

Study these solved cases before continuing.
compound	viability at 4 days, 0.01 µM / %
C=C(C)[C@@H]1CC[C@]2(C(=O)N3C[C@H](OCCOC)C[C@H]3c3nc(-c4ccccc4)cn3CCN3CCCC3)CC[C@]3(C)[C@H](CC[C@@H]4[C@@]5(C)CC[C@H](OC(=O)[C@H]6C[C@@H](C(=O)O)C6(C)C)C(C)(C)[C@@H]5CC[C@]43C)[C@@H]12 [Compound 27]	60
C=C(C)[C@@H]1CC[C@]2(C(=O)N3C[C@H](OCCOC)C[C@H]3c3nc(-c4cccc(F)c4)cn3CCN3CCCC3)CC[C@]3(C)[C@H](CC[C@@H]4[C@@]5(C)CC[C@H](OC(=O)[C@H]6C[C@@H](C(=O)O)C6(C)C)C(C)(C)[C@@H]5CC[C@]43C)[C@@H]12 [Compound 28]	65
C=C(C)[C@@H]1CC[C@]2(C(=O)N3CCC[C@H]3c3nc4ccccc4n3CCN3CCCC3)CC[C@]3(C)[C@H](CC[C@@H]4[C@@]5(C)CC[C@H](OC(=O)[C@H]6C[C@@H](C(=O)O)C6(C)C)C(C)(C)[C@@H]5CC[C@]43C)[C@@H]12 [Compound 30]	33

Pending compound:
[in] Please give measured viability at 4 days, 0.01 µM of the following entry: C=C(C)[C@@H]1CC[C@]2(C(=O)N3CCC[C@H]3c3nc4ccccc4n3CCN(C)C)CC[C@]3(C)[C@H](CC[C@@H]4[C@@]5(C)CC[C@H](OC(=O)[C@H]6C[C@@H](C(=O)O)C6(C)C)C(C)(C)[C@@H]5CC[C@]43C)[C@@H]12 [Compound 29]
[out] 31
